Target: rat pituitary cells (Rattus norvegicus, UniProt O08725)
Sequence (O08725 whole entry): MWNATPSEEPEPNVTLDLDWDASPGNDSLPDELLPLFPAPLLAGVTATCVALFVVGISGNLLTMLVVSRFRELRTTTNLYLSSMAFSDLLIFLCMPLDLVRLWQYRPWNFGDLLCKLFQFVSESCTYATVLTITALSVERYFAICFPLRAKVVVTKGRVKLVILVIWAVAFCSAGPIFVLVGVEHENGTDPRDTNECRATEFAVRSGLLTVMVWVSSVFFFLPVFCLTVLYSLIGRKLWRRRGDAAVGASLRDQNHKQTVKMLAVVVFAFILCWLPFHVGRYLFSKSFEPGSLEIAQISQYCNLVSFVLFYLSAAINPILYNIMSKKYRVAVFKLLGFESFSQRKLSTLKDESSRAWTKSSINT
Details: read-out: PIT Cell EC50; Table IV, formula III compounds; GH release, 15 min incubation
Non-standard residues stand in square brackets, D forms with d. Residues, ends and D or L forms follow the SMILES beside them. dPhe(4-Cl) = N[C@H](Cc1ccc(Cl)cc1)C(=O)O; d2Nal = N[C@H](Cc1ccc2ccccc2c1)C(=O)O; dOrn = NCCC[C@@H](N)C(=O)O; Ac6c = NC1(C(=O)O)CCCCC1; Inp = O=C(O)C1CCNCC1
MEASURED_ENDPOINT: EC50 (nM)
// units = nM; emit number, no label

Consider the reported EC50 for these molecules:
| MOLECULE | RESULT_UNITS | EC50 |
| --- | --- | --- |
| NC(=O)C1(NC(=O)[C@@H](Cc2ccc3ccccc3c2)NC(=O)[C@@H](Cc2ccc3ccccc3c2)NC(=O)C2CCNCC2)CCCCC1 [(inip) b b Abx amide] (H-[Inp][d2Nal][d2Nal][Ac6c]-NH2) | nM | 13 |
| NC(=O)[C@H](Cc1ccccc1)NC(=O)[C@@H](Cc1ccc(Cl)cc1)NC(=O)[C@@H](Cc1ccc2ccccc2c1)NC(=O)C1CCNCC1 [(inip) b chf F amide] (H-[Inp][d2Nal][dPhe(4-Cl)]F-NH2) | nM | 2.7 |

Form field: reported EC50 of NCCC[C@@H](NC(=O)[C@@H](Cc1ccc2ccccc2c1)NC(=O)[C@@H](Cc1ccc2ccccc2c1)NC(=O)C1CCNCC1)C(N)=O [(inip) b b o amide] (H-[Inp][d2Nal][d2Nal][dOrn]-NH2)
10

Likewise for N[C@H]1CC[C@H](NC(=O)[C@@H](Cc2ccc3ccccc3c2)NC(=O)[C@@H](Cc2ccc3ccccc3c2)NC(=O)C2CCNCC2)CC1 ?
14

# repeat for COC(=O)[C@H](Cc1ccccc1)NC(=O)[C@@H](Cc1ccc2ccccc2c1)NC(=O)[C@@H](Cc1ccc2ccccc2c1)NC(=O)C1CCNCC1 [(inip) b b F Me ester] (H-[Inp][d2Nal][d2Nal]F-OMe)
2.8

###

Molecular target: rat pituitary cells (Rattus norvegicus)
Conditions: read-out: PIT Cell EC50; Table V, formula II compounds; GH release, 15 min incubation
pEC50: −log10 of the molar value. Non-standard residues stand in square brackets, D forms with d. Residues, ends and D or L forms follow the SMILES beside them. d2Nal = N[C@H](Cc1ccc2ccccc2c1)C(=O)O; Inp = O=C(O)C1CCNCC1
Decision: pEC50 compared against 8; not below it gives Met, below it gives Not met.

Example entries begin here.
| COMPOUND | ANSWER_LABEL |
| --- | --- |
| NC[C@H](Cc1ccc2ccccc2c1)NC(=O)[C@@H](Cc1ccc2ccccc2c1)NC(=O)C1CCNCC1 | Not met |
| CC(=O)NC[C@@H](Cc1ccc2ccccc2c1)N(C)C(=O)[C@@H](Cc1ccc2ccccc2c1)NC(=O)C1CCNCC1 | Not met |

Please check the record NC(=O)[C@@H](Cc1ccc2ccccc2c1)NC(=O)[C@@H](Cc1ccc2ccccc2c1)NC(=O)C1CCNCC1 [(inip) b b amide] (H-[Inp]-[d2Nal]-[d2Nal]-NH2) and state if its pEC50 is at or above 8.
Not met

Same thing, different compound: O=C(N[C@H](Cc1ccc2ccccc2c1)C(=O)N[C@H](CO)Cc1ccc2ccccc2c1)C1CCNCC1
Not met

###

Tested on: growth hormone secretion
Assay: GHRP induced growth hormone secretion, intravenous administration (Rat IV)
Format: in vivo
Details: Table IV; iv injection, serum GH 10 min after injection
Non-standard residues stand in square brackets, D forms with d. Residues, ends and D or L forms follow the SMILES beside them. dNMe2Nal = CN[C@H](Cc1ccc2ccccc2c1)C(=O)O; 1Nal = N[C@@H](Cc1cccc2ccccc12)C(=O)O; d2Nal = N[C@H](Cc1ccc2ccccc2c1)C(=O)O; d(hPhe) = N[C@H](CCc1ccccc1)C(=O)O; Tic = O=C(O)[C@@H]1Cc2ccccc2CN1; β3hF = N[C@H](CC(=O)O)Cc1ccccc1; Phe(ol) = N[C@H](CO)Cc1ccccc1; Ac6c = NC1(C(=O)O)CCCCC1; Nle = CCCC[C@H](N)C(=O)O; Orn = NCCC[C@H](N)C(=O)O; Inp = O=C(O)C1CCNCC1; Ava = NCCCCC(=O)O
MEASURED_ENDPOINT: RAT IV ED50
Put down the number, then write its unit next to it.

Look over these answered cases.
| MOLECULE | TEST_TARGET | RAT IV ED50 |
| --- | --- | --- |
| NC(=O)[C@H](Cc1ccccc1)NC(=O)[C@@H](Cc1c[nH]c2ccccc12)NC(=O)[C@@H](Cc1ccc2ccccc2c1)NC(=O)C1CCNCC1 [(inip) b w F amide, (inip)-DβNal-(D-Trp)-Phe-amide] (H-[Inp][d2Nal][dW]F-NH2) | growth hormone secretion | 0.67 µg |
| CN(C(=O)CCCCN)[C@H](Cc1ccc2ccccc2c1)C(=O)N[C@H](Cc1ccc2ccccc2c1)C(=O)N[C@@H](Cc1ccccc1)C(N)=O [(Ava) nmb b F amide] (H-[Ava][dNMe2Nal][d2Nal]F-NH2) | growth hormone secretion | 20 µg |
| CN(C(=O)[C@@H](Cc1ccc2ccccc2c1)NC(=O)C1CCNCC1)[C@H](Cc1ccc2ccccc2c1)C(=O)NC1CCNCC1 | growth hormone secretion | 2 µg |
| NC(=O)[C@@H]1Cc2ccccc2CN1C(=O)[C@@H](Cc1ccc2ccccc2c1)NC(=O)[C@@H](Cc1ccc2ccccc2c1)NC(=O)C1CCNCC1 [(inip) b b (Tic) amide] (H-[Inp][d2Nal][d2Nal][Tic]-NH2) | growth hormone secretion | 10 µg |
| O=C(N[C@H](Cc1ccc2ccccc2c1)C(=O)N[C@H](Cc1ccc2ccccc2c1)C(=O)N[C@H](CO)Cc1ccccc1)C1CCNCC1 [(inip) b b Pol, (inip)-DβNal-DβNal-(L-Phenylalanol)] (H-[Inp][d2Nal][d2Nal][Phe(ol)]) | growth hormone secretion | 5 µg |
| NC(=O)[C@H](Cc1ccccc1)NC(=O)[C@@H](Cc1c[nH]c2ccccc12)NC(=O)[C@@H](Cc1c[nH]c2ccccc12)NC(=O)C1CCNCC1 [(inip) w w F amide] (H-[Inp][dW][dW]F-NH2) | growth hormone secretion | 5 µg |
| CN(C(=O)C1CCNCC1)[C@H](Cc1ccc2ccccc2c1)C(=O)N[C@H](Cc1ccc2ccccc2c1)C(=O)N[C@@H](Cc1ccccc1)C(=O)O [(inip) nmb b F acid] (H-[Inp][dNMe2Nal][d2Nal]F-OH) | growth hormone secretion | 5 µg |
| NCCCNC(=O)[C@@H](Cc1ccc2ccccc2c1)NC(=O)[C@@H](Cc1ccc2ccccc2c1)NC(=O)C1CCNCC1 | growth hormone secretion | 5 µg |

Quick one: RAT IV ED50 of NC(=O)[C@H](Cc1cccc2ccccc12)NC(=O)[C@@H](Cc1ccc2ccccc2c1)NC(=O)[C@@H](Cc1ccc2ccccc2c1)NC(=O)C1CCNCC1 [(inip) b b npA amide] (H-[Inp][d2Nal][d2Nal][1Nal]-NH2) ?
5 µg

// same read-out, input: NC(=O)CCN(CCc1ccccc1)C(=O)[C@@H](Cc1ccc2ccccc2c1)NC(=O)[C@@H](Cc1ccc2ccccc2c1)NC(=O)C1CCNCC1 [(inip) b b feb amide]
0.67 µg

Do the same for NC(=O)[C@H](Cc1ccccc1)NC(=O)[C@@H](CCc1ccccc1)NC(=O)[C@@H](Cc1ccc2ccccc2c1)NC(=O)C1CCNCC1 [(inip) b hf F amide] (H-[Inp][d2Nal][d(hPhe)]F-NH2) please
10 µg

CCCC[C@H](NC(=O)[C@@H](Cc1ccc2ccccc2c1)NC(=O)[C@@H](Cc1ccc2ccccc2c1)NC(=O)C1CCNCC1)C(N)=O [(inip) b b nL amide] (H-[Inp][d2Nal][d2Nal][Nle]-NH2) , same question.
3.3 µg

Check CN(C(=O)[C@@H](Cc1ccc2ccccc2c1)NC(=O)C1CCNCC1)[C@H](Cc1ccc2ccccc2c1)C(=O)NCCCCN too.
1.67 µg

Input NC(=O)[C@H](Cc1ccccc1)NC(=O)[C@@H](Cc1ccc2ccccc2c1)NC(=O)[C@@H](Cc1ccc2ccccc2c1)NC(=O)C1CCNCC1 [(inip) b b F amide, (inip)-DβNal-DβNal-Phe-amide] (H-[Inp][d2Nal][d2Nal]F-NH2)
1.7 µg

Then this molecule: NC(=O)C[C@H](Cc1ccccc1)NC(=O)[C@@H](Cc1ccc2ccccc2c1)NC(=O)[C@@H](Cc1ccc2ccccc2c1)NC(=O)C1CCNCC1 [(inip) b b hcF amide] (H-[Inp][d2Nal][d2Nal][β3hF]-NH2)
2.5 µg

Item: NCCC[C@H](NC(=O)[C@@H](Cc1ccc2ccccc2c1)NC(=O)[C@@H](Cc1ccc2ccccc2c1)NC(=O)C1CCNCC1)C(N)=O [(inip) b b O amide] (H-[Inp][d2Nal][d2Nal][Orn]-NH2)
1 µg

Same lookup for NC(=O)C1(NC(=O)[C@@H](Cc2ccc3ccccc3c2)NC(=O)[C@@H](Cc2ccc3ccccc3c2)NC(=O)C2CCNCC2)CCCCC1 [(inip) b b Abx amide] (H-[Inp][d2Nal][d2Nal][Ac6c]-NH2) , please.
100 µg
